- assay_system: human serum albumin (HSA) (Homo sapiens)
- Sequence (P02768 25-609): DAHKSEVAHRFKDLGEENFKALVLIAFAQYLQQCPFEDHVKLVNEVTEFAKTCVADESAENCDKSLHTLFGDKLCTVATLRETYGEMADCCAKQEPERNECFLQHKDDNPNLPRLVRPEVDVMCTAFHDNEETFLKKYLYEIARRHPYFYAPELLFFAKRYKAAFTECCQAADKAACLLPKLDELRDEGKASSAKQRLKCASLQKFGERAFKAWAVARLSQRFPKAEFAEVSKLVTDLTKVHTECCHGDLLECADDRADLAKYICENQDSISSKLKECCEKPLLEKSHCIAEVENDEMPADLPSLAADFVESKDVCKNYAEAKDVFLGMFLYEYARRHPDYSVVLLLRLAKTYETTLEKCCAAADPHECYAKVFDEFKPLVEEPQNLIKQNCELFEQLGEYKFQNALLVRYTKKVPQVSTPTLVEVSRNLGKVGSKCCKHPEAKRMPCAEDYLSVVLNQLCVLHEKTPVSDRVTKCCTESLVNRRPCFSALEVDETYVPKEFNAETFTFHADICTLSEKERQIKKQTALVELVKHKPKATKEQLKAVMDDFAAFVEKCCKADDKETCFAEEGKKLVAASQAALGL
- assay_comment: Fluorescence emission spectrum (quenching) of HSA with carbamate pesticides
- Format: binding
- condition_notes: 303 K
Classes by ΔG^0: one (below -5 kcal/mol), two (-5 kcal/mol to below -4 kcal/mol), three (-4 kcal/mol or more)

# compound, assigned_category
rows = [
    ("CNC(=O)Oc1ccccc1OC(C)C", "two"),
    ("CNC(=O)O/N=C(\\C)C(C)S(C)(=O)=O (centres unmarked)", "two"),
    ("CNC(=O)ON=C(CSC)C(C)(C)C", "two"),
    ("CNC(=O)O/N=C(\\C[S+](C)[O-])C(C)(C)C (centres unmarked) [Thiofanox-sulfoxide]", "two"),
    ("CNC(=O)O/N=C(\\SC)C(=O)N(C)C", "one"),
    ("CNC(=O)Oc1cc(C)cc(C(C)C)c1", "two"),
    ("CNC(=O)Oc1cccc(C)c1", "three"),
    ("CCSCc1ccccc1OC(=O)NC", "three"),
    ("CNC(=O)ON=C(C)SC", "two"),
    ("CNC(=O)Oc1cccc2c1OC(C)(C)C2", "one"),
]
